Each entry below carries its recorded pIC50.
- Tested on: L. donovani BD14 promastigotes
- assay-protocol: Promastigotes susceptibility assay (MTT), L. donovani
- Format: cell-based
- experimental-context: Leishmania donovani; 48 h incubation, MTT; read-out: IC50 ± SD, L. donovani promastigotes
Field pIC50 (float): negative decimal logarithm of the concentration in molar.

compound: O=C1CCC2(CC1)OOC1(OO2)C2CC3CC(C2)CC1C3 [LC140]
pIC50: 3.34
//
compound: c1ccc(-n2nnnc2OCC2CCC3(CC2)OOC2(O3)C3CC4CC(C3)CC2C4)cc1 (stereo not shown) [LC132]
pIC50: 4.84
//
compound: Cn1nnc(NCC2CCC3(CC2)OOC2(O3)C3CC4CC(C3)CC2C4)n1 (stereo not shown) [LC131]
pIC50: 3.91
//
compound: OCC1CCC2(CC1)OOC1(O2)C2CC3CC(C2)CC1C3 (stereo not shown) [LC93]
pIC50: 3.82
//
compound: CCCCCCCCCCCCCCCCOP(=O)([O-])OCC[N+](C)(C)C [Miltefosine, reference compound]
pIC50: 4.62

pIC50 recorded for this compound, C1C2CC3CC1CC(C2)C31OOC2(CCC(Nc3nnn[nH]3)CC2)OO1 (stereo not shown) [LC163] , is 3.27

pIC50 recorded for this compound, C1C2CC3CC1CC(C2)C31OOC2(CCC(Nc3nnn[nH]3)CC2)O1 (stereo not shown) [LC136] , is 3.63

pIC50 recorded for this compound, OCC1CCC2(CC1)OOC1(OO2)C2CC3CC(C2)CC1C3 (stereo not shown) [LC146] , is 3.10

pIC50 recorded for this compound, CCOC(=O)C1CCC2(CC1)OOC1(OO2)C2CC3CC(C2)CC1C3 (stereo not shown) [LC138] , is 3.62

pIC50 recorded for this compound, C[C@@H]1[C@H](O)[C@@H](C)/C=C/C=C/C=C/C=C/C=C/C=C/C=C/[C@H](O[C@@H]2O[C@H](C)[C@@H](O)[C@H](N)[C@@H]2O)C[C@@H]2O[C@](O)(C[C@@H](O)C[C@@H](O)[C@H](O)CC[C@@H](O)C[C@@H](O)CC(=O)O[C@H]1C)C[C@H](O)[C@H]2C(=O)O [AmB, amphotericin B, reference compound] , is 6.52

###

Each entry below carries its recorded CC50 at 48 h.
- assay-protocol: Cytotoxicity assay (MTT), J774A.1 cell line
- Assay type: cell-based
- experimental-context: mouse; 48 h incubation, MTT; read-out: CC50 ± SD, J774A.1 Cell Line
Respond with the bare value in µM.

compound: C1CC2(CCN1)OOC1(OO2)C2CC3CC(C2)CC1C3
CC50 at 48 h / µM: 913
//
compound: C1CCC2(CC1)OOC1(OO2)C2CC3CC(C2)CC1C3
CC50 at 48 h / µM: 443

// switching to the query compound
CC50 at 48 h recorded for this compound, O=C1CCC2(CC1)OOC1(O2)C2CC3CC(C2)CC1C3 (stereo not drawn) , is 519

###

- Tested on: L. donovani BD14 promastigotes
- assay-protocol: Promastigotes susceptibility assay (MTT), L. donovani
- Format: cell-based
- experimental-context: Leishmania donovani, 48 h, read-out: IC50 ± SD, L. donovani promastigotes
Each entry below carries its recorded IC50.
Respond with the bare value in µM.

Please review the entries below; each comes with its answer.
compound: C1CC2(CCN1)OOC1(OO2)C2CC3CC(C2)CC1C3
unit-descriptor: µM
IC50: 507
--
compound: C1CCC2(CC1)OOC1(OO2)C2CC3CC(C2)CC1C3
unit-descriptor: µM
IC50: 143

// switching to the query compound
IC50 recorded for this compound, O=C1CCC2(CC1)OOC1(O2)C2CC3CC(C2)CC1C3 (stereo not drawn) , is 354

###

- assay-protocol: Cytotoxicity assay (MTT), PMA-differentiated THP-1 cell line
- Type: cell-based
- experimental-context: human, PMA-differentiated THP-1 cells; 48 h incubation, MTT; read-out: CC50 ± SD, THP-1 Cell Line
readout-name: CC50 at 48 h (µM)
Respond with the bare value in µM.

Please review the entries below; each comes with its answer.
compound: CCOC(=O)C1CCC2(CC1)OOC1(OO2)C2CC3CC(C2)CC1C3 (stereo not drawn)
readout-name: CC50 at 48 h
assay-result: 2840
//
compound: OCC1CCC2(CC1)OOC1(O2)C2CC3CC(C2)CC1C3 (stereo not drawn)
readout-name: CC50 at 48 h
assay-result: 185
//
compound: O=C1CCC2(CC1)OOC1(OO2)C2CC3CC(C2)CC1C3
readout-name: CC50 at 48 h
assay-result: 1400
//
compound: c1ccc(-n2nnnc2OCC2CCC3(CC2)OOC2(O3)C3CC4CC(C3)CC2C4)cc1 (stereo not drawn)
readout-name: CC50 at 48 h
assay-result: 99.8
//
compound: C1C2CC3CC1CC(C2)C31OOC2(CCC(Nc3nnn[nH]3)CC2)O1 (stereo not drawn)
readout-name: CC50 at 48 h
assay-result: 250

CC50 at 48 h recorded for this compound, C1C2CC3CC1CC(C2)C31OOC2(CCC(Nc3nnn[nH]3)CC2)OO1 (stereo not drawn) , is 753

CC50 at 48 h recorded for this compound, Cn1nnc(NCC2CCC3(CC2)OOC2(O3)C3CC4CC(C3)CC2C4)n1 (stereo not drawn) , is 78.2

CC50 at 48 h recorded for this compound, OCC1CCC2(CC1)OOC1(OO2)C2CC3CC(C2)CC1C3 (stereo not drawn) , is 3220

CC50 at 48 h recorded for this compound, O=S1(=O)N=C(OCC2CCC3(CC2)OOC2(O3)C3CC4CC(C3)CC2C4)c2ccccc21 (stereo not drawn) , is 356

###

- Test system: L. donovani BD14 intracellular amastigotes
- assay-protocol: Intracellular amastigotes assay in J774A.1 macrophages, L. donovani
- Format: cell-based
- experimental-context: Leishmania donovani, J774.A1; 48 h incubation, J774A.1 host cells; read-out: IC50 ± SD, L. donovani intracellular amastigotes
Each entry below carries its recorded IC50.
Respond with the bare value in µM.

Please review the entries below; each comes with its answer.
molecule: c1ccc(-n2nnnc2OCC2CCC3(CC2)OOC2(O3)C3CC4CC(C3)CC2C4)cc1 (stereo not shown) [LC132]
IC50 [µM]: 9.4

molecule: CCCCCCCCCCCCCCCCOP(=O)([O-])OCC[N+](C)(C)C [Miltefosine, reference compound]
IC50 [µM]: 13.3

molecule: C[C@@H]1[C@H](O)[C@@H](C)/C=C/C=C/C=C/C=C/C=C/C=C/C=C/[C@H](O[C@@H]2O[C@H](C)[C@@H](O)[C@H](N)[C@@H]2O)C[C@@H]2O[C@](O)(C[C@@H](O)C[C@@H](O)[C@H](O)CC[C@@H](O)C[C@@H](O)CC(=O)O[C@H]1C)C[C@H](O)[C@H]2C(=O)O [AmB, amphotericin B, reference compound]
IC50 [µM]: 0.1

IC50 recorded for this molecule, CCOC(=O)C1CCC2(CC1)OOC1(OO2)C2CC3CC(C2)CC1C3 (stereo not shown) [LC138] , is 426

###

- assay-protocol: Cytotoxicity assay (MTT), PMA-differentiated THP-1 cell line
- Type: cell-based
- experimental-context: human
readout-name: CC50 at 48 h (µM)
Respond with the bare value in µM.

compound: CCCCCCCCCCCCCCCCOP(=O)([O-])OCC[N+](C)(C)C [Miltefosine, reference compound]
CC50 at 48 h (µM): 100

// switching to the query compound
CC50 at 48 h recorded for this compound, C[C@@H]1[C@H](O)[C@@H](C)/C=C/C=C/C=C/C=C/C=C/C=C/C=C/[C@H](O[C@@H]2O[C@H](C)[C@@H](O)[C@H](N)[C@@H]2O)C[C@@H]2O[C@](O)(C[C@@H](O)C[C@@H](O)[C@H](O)CC[C@@H](O)C[C@@H](O)CC(=O)O[C@H]1C)C[C@H](O)[C@H]2C(=O)O [AmB, amphotericin B, reference compound] , is 23.2

###

Each entry below carries its recorded CC50 at 48 h.
- assay-protocol: Cytotoxicity assay (MTT), PMA-differentiated THP-1 cell line
- Type: cell-based
- experimental-context: human; 48 h incubation, MTT; read-out: CC50 ± SD, THP-1 Cell Line
- Protocol: Adherent BALB/c mouse macrophage cell line J774A.1 (ATCC® TIB 67™) and suspension human acute monocytic leukemic cell line THP-1 (ATCC® TIB-202™) were purchased from DSMZ, Germany were cultured and maintained in DMEM medium (Gibco) and RPMI 1640 (Sigma), respectively, supplemented with 10% FBS, 1% penicillin-streptomycin (Sigma) and L-glutamine 200 mM (Sigma), at 37 °C, 5% CO2. Cell lines J774A.1 and THP-1 were used to estimate CC50 of the peroxides. […]
Respond with the bare value in µM.

molecule: O=C1CCC2(CC1)OOC1(O2)C2CC3CC(C2)CC1C3 (stereo not drawn)
unit-descriptor: µM
CC50 at 48 h: 713

CC50 at 48 h recorded for this molecule, C1CC2(CCN1)OOC1(OO2)C2CC3CC(C2)CC1C3 , is 115

CC50 at 48 h recorded for this molecule, C1CCC2(CC1)OOC1(OO2)C2CC3CC(C2)CC1C3 , is 3570
